# EXPERIMENT_DESCRIPTION: duplex melting temperature (HRM, EvaGreen); higher = more stable duplex
# CONDITION_SUMMARY: duplex concentration 1 µM; backbone: PS-PO (listed strand fully phosphorothioate, complement phosphodiester)
Assign label 1 to entries whose duplex melting temperature meets or exceeds 60 °C; assign label 0 to the rest.

residues=AGGAGTGAATGAAATGG classification="label 0"
residues=GCGGTTGGTGGCCAAC classification="label 1"
residues=GATGCCGCAGCGACCTG classification="label 1"
residues=CTTTTGTGCGGGTAGC classification="label 0"
residues=TAGACGCGGCCTCTTTCC classification="label 1"
residues=CCACTAGCGGCGCCGTT classification="label 1"
residues=CCGCTCAGAGTAGAGA classification="label 0"
